Tested on: PC-3 prostate
Test: NCI tumour cell line growth inhibition, 48 h; in the data active means GI50 below about 0.43 µM; inactive means the rest
Possible outcomes: Yes (active), No (inactive)

# molecule, assigned_class
records = [
    ("OC1CCCC2CCC[N-]C12.OC1CCCC2CCC[N-]C12.[O]=[V][OH] (stereo unspecified)", "No"),
    ("COc1ccc(-c2cn(-c3ccc(OC)c(OC)c3)c(=O)[nH]2)cc1", "No"),
    ("Clc1ccc2c(c1)N(C1CCCN(Cc3ccccc3)C1)c1ccccc1S2 (stereo unspecified)", "No"),
    ("CC1=C(C(=O)Nc2ccc(F)c(Cl)c2)C(c2cccc(Oc3ccccc3)c2)NC(=S)N1 (stereo unspecified)", "No"),
    ("CCC(=O)N1C/C(=C/c2ccc(Br)cc2)C(=O)/C(=C/c2ccc(Br)cc2)C1", "No"),
    ("Clc1cccc(CNc2c3ccccc3nc3ccccc23)c1", "No"),
    ("O=C1Nc2ccccc2/C1=C\\c1nc(-c2ccccc2F)n2ccccc12", "No"),
    ("c1ccc(Oc2ccc(Nc3ncc(-c4ccccc4)o3)cc2)cc1", "No"),
    ("COc1cc(-c2nc3ccccc3o2)cc(CN2CCCCC2)c1O", "No"),
    ("Cn1cc(C2=C(c3cn(CCCN)c4ccccc34)C(=O)NC2=O)c2ccccc21", "No"),
    ("CCN(CC)CCN1c2nc3ccccc3cc2Sc2cc3ccccc3nc21", "No"),
    ("CNC(=O)c1c(F)cccc1Nc1nc(Nc2cc3c(cc2OC)CCN3C(=O)CN(C)C)nc2[nH]ccc12", "No"),
    ("N#Cc1nc(C#N)c(Sc2ccccc2)c(Sc2ccccc2)c1Sc1ccccc1", "No"),
    ("CCOc1ccc(C(C[N+](=O)[O-])Sc2ccccc2N)cc1 (stereo unspecified)", "No"),
    ("Oc1[nH]c2ccccc2c1/C=c1/ccc2c(c1)N=C(c1ccc(C(F)(F)F)cc1)N=2", "No"),
    ("COc1ccccc1[As]=[As]c1ccccc1OC (stereo unspecified)", "Yes"),
]

---

GI50 reference
Test system: SF-295 CNS
Experiment: NCI tumour cell line growth inhibition, 48 h

# smiles_data, GI50
data = [
    ("c1ccc(-c2n(Cc3ccc4ccccc4c3)c3ccccc3[n+]2Cc2ccc3ccccc3c2)cc1", "0.306 µM"),
    ("N=C(N)c1ccc(-c2ccc(-c3ccc4ccccc4c3)s2)s1", "2.27 µM"),
    ("CCN(CC)c1ccc(-c2cc(-c3cc(OC)c(OC)c(OC)c3)nc(N3CCC(O)CC3)c2C#N)cc1", "0.169 µM"),
    ("C#C[C@@]1(O)[C@@H](CO)O[C@@H](n2cc(C(F)(F)F)c3c(N)ncnc32)[C@@H]1O", "2.18 µM"),
    ("CN(C)Cc1ccc(NC(=O)c2cncc(C#Cc3cnc(N)c4ncccc34)c2)cc1F", "10.6 µM"),
]

---

Test system: CAKI-1 renal
Assay: NCI tumour cell line growth inhibition, 48 h
parameter_measured: TGI (µM)

# smiles_data, test_target, parameter_measured, limit_qualifier, value_reported
rows = [
    ("COc1c(C(C)(C)C)cc(CC2C(=O)C=CC2=O)cc1C(C)(C)C", "CAKI-1 renal", "TGI", "=", 30.5),
    ("CCC/C(Cl)=N/OC(NC(=O)OCC)(C(F)(F)F)C(F)(F)F", "CAKI-1 renal", "TGI", "=", 35.6),
    ("CN(C)c1ccc(/C=N/c2nc3cc4sc(/N=C/c5ccc(N(C)C)cc5)nc4cc3s2)cc1", "CAKI-1 renal", "TGI", ">", 100),
]

---

Test system: SNB-19 CNS
Test: NCI tumour cell line growth inhibition, 48 h
TGI reference

# molecule, TGI
records = [
    ("O=C1c2ccccc2C(=O)c2c(NC(=O)C3CC3)ccc(NC(=O)C3CC3)c21", "> 100 µM"),
    ("CCOC(=O)c1c(N2CCCC2)[nH]c(=O)c(C(c2ccc(Cl)c([N+](=O)[O-])c2)c2c(O)c(C(=O)OCC)c(N3CCCC3)[nH]c2=O)c1O", "49.9 µM"),
    ("CCOC(=O)CSC1NC(C(=O)OC)CC1OC (centres undefined)", "> 100 µM"),
    ("COC1C=COC2(C)Oc3c(C)c(O)c4c(O)c(c(C5SCCS5)c(O)c4c3C2=O)NC(=O)/C(C)=C\\C=CC(C)C(O)C(C)C(O)C(C)C(OC(C)=O)C1C (centres undefined)", "17.7 µM"),
    ("COc1ccc2c(O)c(/C=C3\\N=Nc4ncccc43)oc2c1C[C@@H]1CCNC[C@H]1F", "7.59 µM"),
    ("S=C(N/N=C/c1ccccn1)N1CC2CCC(CC2)C1", "14.3 µM"),
    ("Cc1nc2cc3ccccc3cc2[nH]c1=O", "> 100 µM"),
    ("C/C=C/C(=O)[O-].C/C=C/C(=O)[O-].N.N.N.N.[Co+3].[O-][Cl+3]([O-])([O-])[O-]", "> 100 µM"),
    ("CCN(CC)C(=S)SCC(=O)Nc1nc2c(s1)CCCC2", "> 100 µM"),
    ("COC(=O)c1c(-c2cc(OC)c(OC)c(OC)c2)oc2ccccc2c1=O", "> 100 µM"),
    ("CCOC(=O)/C(C(=S)NCc1ccccc1)=C(/N)N1CCCC1", "> 100 µM"),
    ("CCCCNC(=S)OCCC(C)CCCC(C)C (centres undefined)", "> 100 µM"),
    ("O=CC1C(Cl)=Nc2nc3ccccc3n2C1c1ccccc1 (centres undefined)", "> 100 µM"),
    ("O=C(COc1ccccc1)N(C(=O)N1CCN(c2ccccc2)CC1)S(=O)(=O)c1ccccc1", "> 100 µM"),
    ("CC(C)OC(=O)[C@H]1ON2O[C@H](O[C@@H]3CCCC[C@H]3c3ccccc3)C([Si](C)(C)c3ccccc3)[C@H]3OC(=O)[C@@H]1C32 (some centres undefined)", "> 100 µM"),
    ("CCCCCCCCCCCCCCCC(=O)OCCOCCOCCOCCOCCOC(=O)CCCCCCCCCCCCCCC", "> 100 µM"),
    ("Cc1ccc(Cl)c(NS(=O)(=O)c2ccc(-c3cnc(C4CC4)o3)cc2)c1", "> 100 µM"),
    ("Fc1ccc(-c2nn3ccccc3c2-c2ccncc2)cc1", "> 25 µM"),
    ("Cn1c(=O)cc2[nH]c3ccccc3n2c1=O", "> 100 µM"),
    ("COc1cc2c(oc(=O)c3cc4cc([Si](C)(C)C)oc4c(OC)c32)c2cccc(O)c12", "> 100 µM"),
    ("CO[C@@]12C[C@@H](C)[C@]34O[C@H]3C[C@]3(C)O[C@]43CC1=C(C)C(=O)O2", "> 100 µM"),
    ("CCOC(=O)c1[nH]c2cc(OC)c(OC)cc2c1CN(C)C", "> 100 µM"),
    ("CCOC(=N)CC(=O)Nc1ccccc1", "> 100 µM"),
    ("COC(=O)CC(C(C(=O)OC)C(=O)OC)N1C(=O)OC(c2ccccc2)C1c1ccccc1 (centres undefined)", "> 100 µM"),
]

---

Test system: SNB-75 CNS
Assay: NCI tumour cell line growth inhibition, 48 h

# smiles_data, TGI
records = [
    ("COc1ccc(-c2cn(-c3ccc(OC)c(OC)c3)c(=O)[nH]2)cc1", "98.7 µM"),
    ("O=C(O)CCCNc1ncc2c(n1)-c1ccccc1OC2", "> 100 µM"),
    ("CCc1c(CNC2=NCCN2)c(CC)c(CNC2=NCCN2)c(CC)c1CNC1=NCCN1", "> 100 µM"),
]

---

TGI reference
Test system: HL-60(TB) leukemia
Assay: NCI tumour cell line growth inhibition, 48 h

# compound, limit_qualifier, TGI, µM
measured = [
    ("c1ccc(-c2c(-c3cccs3)[nH]c(-c3cccs3)c2-c2ccccn2)nc1", ">", 100),
    ("CN(C)CCCNC(=O)c1cc(NS(=O)(=O)c2ccc3c(c2)C(=O)c2ccccc2C3=O)cn1C", "=", 62.3),
    ("S=C(N/N=C/c1ccccn1)N1CC2CCC(CC2)C1", "=", 0.143),
    ("CC(C)OC(=O)[C@H]1ON2O[C@H](O[C@@H]3CCCC[C@H]3c3ccccc3)C([Si](C)(C)c3ccccc3)[C@H]3OC(=O)[C@@H]1C32 (stereo not given in full)", ">", 100),
    ("O=C(Nc1ccc(Cl)cc1C(=O)O)c1ccc([N+](=O)[O-])cc1", "=", 50.8),
]

---

GI50 reference
System: 786-0 renal
Assay: NCI tumour cell line growth inhibition, 48 h

# compound, test_target, GI50
data = [
    ("C[N+](C)(C)c1cc[c]([Sn]([c]2ccc([N+](C)(C)C)cc2)([c]2ccc([N+](C)(C)C)cc2)[c]2ccc([N+](C)(C)C)cc2)cc1", "786-0 renal", "> 100 µM"),
    ("COc1cc(-c2nc3ccccc3o2)cc(CN2CCCCC2)c1O", "786-0 renal", "20.3 µM"),
    ("Fc1ccc(-c2nn3ccccc3c2-c2ccncc2)cc1", "786-0 renal", "> 25 µM"),
    ("COc1cc2ncnc(Nc3ccc(Oc4ccnc(C)c4)c(C)c3)c2cc1NC(=O)CC1CCSS1 (configuration not stated)", "786-0 renal", "> 50 µM"),
    ("O=C1Cc2cc(CCn3cncn3)c(Cl)cc2N1", "786-0 renal", "> 100 µM"),
    ("CCOc1ccc(C(C[N+](=O)[O-])Sc2ccccc2N)cc1 (configuration not stated)", "786-0 renal", "5.11 µM"),
    ("CN(C)Cc1ccc(NC(=O)c2cncc(C#Cc3cnc(N)c4ncccc34)c2)cc1F", "786-0 renal", "1.86 µM"),
]
